- ASSAYED SYSTEM: T1, APC2237-AA
- T1 chain: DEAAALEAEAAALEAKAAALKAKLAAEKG
- PROTOCOL NOTES: two-hybrid library CCmax;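 also: natural log of median RNA to DNA barcode read ratio; higher means stronger binding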
- CONDITION CONTEXT: mean of both orientations
MEASUREMENT NAME: interaction score

BINDER | NUMERIC READOUT
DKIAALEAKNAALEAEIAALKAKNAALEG [4H2447-AA] | -1.38
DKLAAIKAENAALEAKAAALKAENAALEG [APC1434-AA] | -1.66

1: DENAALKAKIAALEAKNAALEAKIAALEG [4H1845-AA]
2: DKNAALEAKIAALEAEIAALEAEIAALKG [4H3330-AA]
Exercise: Just tell me: smaller interaction score value, 1 or 2 ? When you have decided, please share the label of that item.
Key: 1
(1: -1.46, 2: -0.433)
